biological target: MAP3K10 (human); assay: radiometric filter-binding kinase assay, Kinase HotSpot; details: compound 0.5 µM; ATP 10 µM
# residual activity listing for each entry below
Write the number in % without appending the unit.

# example entries with known answers
[[record]]
molecule = "O=c1cc(N2CCOCC2)oc2c1ccc1ccccc12"
tested_system = "MAP3K10 (human)"
value = 102

[[record]]
molecule = "N#CC(C#N)=C(N)/C(C#N)=C/c1ccc(O)cc1"
tested_system = "MAP3K10 (human)"
value = 98

[[record]]
molecule = "CCN(CC)CCNC(=O)c1c(C)[nH]c(/C=C2\\C(=O)Nc3ccc(Cl)cc32)c1C"
tested_system = "MAP3K10 (human)"
value = 82.8

[[record]]
molecule = "Oc1cccc(-c2nc(N3CCOCC3)c3oc4ncccc4c3n2)c1"
tested_system = "MAP3K10 (human)"
value = 92

[[record]]
molecule = "CC[n+]1c(/C=C/N(C)c2ccccc2)n(-c2ccccc2)c2ccc(-c3nc4ccccc4s3)cc21"
tested_system = "MAP3K10 (human)"
value = 103

[[record]]
molecule = "O=C1NC(=O)/C(=C/c2ccc3c(c2)OC(F)(F)O3)S1"
tested_system = "MAP3K10 (human)"
value = 91.2


Using the record for `COc1ccc2c(c[n+](C)c3c4cc5c(cc4ccc23)OCO5)c1OC` , state its measured residual activity.
91.7

Using the record for `Nc1ncnc2[nH]nc(Nc3ccc(F)cc3)c12` , state its measured residual activity.
85.9

Using the record for `CCCC(=O)Oc1ccc2[nH]c(C(=O)c3cc4ccccc4[nH]3)cc2c1` , state its measured residual activity.
87.7

Using the record for `Cc1ccc(Nc2nccc(N(C)c3ccc4c(C)n(C)nc4c3)n2)cc1S(N)(=O)=O` , state its measured residual activity.
28.5

Using the record for `Nc1ncnc2c1c(-c1ccc(Oc3ccccc3)cc1)cn2C1CCCC1` , state its measured residual activity.
82.6

Using the record for `Nc1ccc2ncnc(NCCc3ccc(Oc4ccccc4)cc3)c2c1` , state its measured residual activity.
91.9

Using the record for `O=C(Nc1cccc(Nc2nccc(Nc3cccc(C(F)(F)F)c3)n2)c1)C1CC1` , state its measured residual activity.
96.4

Using the record for `O=C1Nc2ccc(Cl)cc2/C1=C/c1cc(Cl)c(O)c(Cl)c1` , state its measured residual activity.
86.8

Using the record for `CCOC(=O)c1c(C)[nH]c(/C=C2\C(=O)Nc3ccccc32)c1C` , state its measured residual activity.
98.5

Using the record for `O=C1NC(=O)c2c1c1c3ccccc3n3c1c1c2c2ccccc2n1C1CCC3O1` , state its measured residual activity.
2.66

* * *

target: UniProtKB Q14012; assay: radiometric filter-binding kinase assay, Kinase HotSpot; details: compound 0.5 µM; ATP 10 µM
Sequence (Q14012 whole entry, looked up): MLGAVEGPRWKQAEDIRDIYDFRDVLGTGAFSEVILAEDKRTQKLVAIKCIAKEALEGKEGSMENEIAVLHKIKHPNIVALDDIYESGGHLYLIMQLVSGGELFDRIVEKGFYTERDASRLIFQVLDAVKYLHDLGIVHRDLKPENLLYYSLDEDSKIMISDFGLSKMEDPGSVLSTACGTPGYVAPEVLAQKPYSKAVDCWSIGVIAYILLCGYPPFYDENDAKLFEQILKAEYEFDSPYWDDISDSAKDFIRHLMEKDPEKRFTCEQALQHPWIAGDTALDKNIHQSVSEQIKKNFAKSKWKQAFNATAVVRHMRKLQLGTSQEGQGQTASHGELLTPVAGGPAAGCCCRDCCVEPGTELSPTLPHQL
# residual activity listing for each entry below
Write the number in % without appending the unit.

# example entries with known answers
[[record]]
structure_smiles_string = "CNC(=O)c1cc(Oc2ccc(NC(=O)Nc3ccc(Cl)c(C(F)(F)F)c3)cc2)ccn1"
property_label = "residual activity"
value = 106

[[record]]
structure_smiles_string = "Nc1ncnc2[nH]nc(Nc3ccc(F)cc3)c12"
property_label = "residual activity"
value = 103


Using the record for `O=c1cc(N2CCOCC2)oc2c1ccc1ccccc12` , state its measured residual activity.
111

* * *

target: PRKCE (human); assay: radiometric filter-binding kinase assay, Kinase HotSpot; details: compound 0.5 µM; ATP 10 µM
# residual activity listing for each entry below
Write the number in % without appending the unit.

# example entries with known answers
[[record]]
molecule = "Nc1cccc(-c2cc3c(Oc4cccc(O)c4)ncnc3[nH]2)c1"
value = 97.4

[[record]]
molecule = "N#CC(C#N)=C(N)/C(C#N)=C/c1ccc(O)cc1"
value = 89.3

[[record]]
molecule = "CO[C@H]1CC2CC[C@@H](C)[C@@](O)(O2)C(=O)C(=O)N2CCCC[C@H]2C(=O)OC([C@H](C)C[C@@H]2CC[C@@H](O)[C@H](OC)C2)CC(=O)[C@H](C)/C=C(\\C)[C@@H](O)[C@@H](OC)C(=O)[C@H](C)C[C@H](C)/C=C/C=C/C=C/1C (stereo not given in full)"
value = 105

[[record]]
molecule = "Oc1cccc(-c2nc(N3CCOCC3)c3oc4ncccc4c3n2)c1"
value = 100

[[record]]
molecule = "CC(=O)c1ccc(N2CCOCC2)cc1O"
value = 93.4


Using the record for `CC(C)N(CCC(=O)c1ccc2ccccc2c1)Cc1ccccc1` , state its measured residual activity.
95

Using the record for `O=C1NC(=O)C(c2cn(CCCn3ccnc3)c3ccccc23)=C1Nc1ccccc1` , state its measured residual activity.
12.8

Using the record for `c1ccc(-c2n[nH]c3c2oc2ccccc23)cc1` , state its measured residual activity.
86

Using the record for `O=c1cc(N2CCOCC2)oc2c1ccc1ccccc12` , state its measured residual activity.
89.6

Using the record for `Nc1ccc2ncnc(NCCc3ccc(Oc4ccccc4)cc3)c2c1` , state its measured residual activity.
109

Using the record for `Nc1ncnc2[nH]nc(Nc3ccc(F)cc3)c12` , state its measured residual activity.
99.5

Using the record for `Cc1ccc(S(=O)(=O)/C=C/C#N)cc1` , state its measured residual activity.
106

Values compiled from the kinase profiling compilation of Christmann-Franck et al. (2016).
